Sourced from ChEMBL document CHEMBL4257443

Target: Sodium channel protein type 3 subunit alpha (Homo sapiens)
Sequence (Q9NY46 whole entry): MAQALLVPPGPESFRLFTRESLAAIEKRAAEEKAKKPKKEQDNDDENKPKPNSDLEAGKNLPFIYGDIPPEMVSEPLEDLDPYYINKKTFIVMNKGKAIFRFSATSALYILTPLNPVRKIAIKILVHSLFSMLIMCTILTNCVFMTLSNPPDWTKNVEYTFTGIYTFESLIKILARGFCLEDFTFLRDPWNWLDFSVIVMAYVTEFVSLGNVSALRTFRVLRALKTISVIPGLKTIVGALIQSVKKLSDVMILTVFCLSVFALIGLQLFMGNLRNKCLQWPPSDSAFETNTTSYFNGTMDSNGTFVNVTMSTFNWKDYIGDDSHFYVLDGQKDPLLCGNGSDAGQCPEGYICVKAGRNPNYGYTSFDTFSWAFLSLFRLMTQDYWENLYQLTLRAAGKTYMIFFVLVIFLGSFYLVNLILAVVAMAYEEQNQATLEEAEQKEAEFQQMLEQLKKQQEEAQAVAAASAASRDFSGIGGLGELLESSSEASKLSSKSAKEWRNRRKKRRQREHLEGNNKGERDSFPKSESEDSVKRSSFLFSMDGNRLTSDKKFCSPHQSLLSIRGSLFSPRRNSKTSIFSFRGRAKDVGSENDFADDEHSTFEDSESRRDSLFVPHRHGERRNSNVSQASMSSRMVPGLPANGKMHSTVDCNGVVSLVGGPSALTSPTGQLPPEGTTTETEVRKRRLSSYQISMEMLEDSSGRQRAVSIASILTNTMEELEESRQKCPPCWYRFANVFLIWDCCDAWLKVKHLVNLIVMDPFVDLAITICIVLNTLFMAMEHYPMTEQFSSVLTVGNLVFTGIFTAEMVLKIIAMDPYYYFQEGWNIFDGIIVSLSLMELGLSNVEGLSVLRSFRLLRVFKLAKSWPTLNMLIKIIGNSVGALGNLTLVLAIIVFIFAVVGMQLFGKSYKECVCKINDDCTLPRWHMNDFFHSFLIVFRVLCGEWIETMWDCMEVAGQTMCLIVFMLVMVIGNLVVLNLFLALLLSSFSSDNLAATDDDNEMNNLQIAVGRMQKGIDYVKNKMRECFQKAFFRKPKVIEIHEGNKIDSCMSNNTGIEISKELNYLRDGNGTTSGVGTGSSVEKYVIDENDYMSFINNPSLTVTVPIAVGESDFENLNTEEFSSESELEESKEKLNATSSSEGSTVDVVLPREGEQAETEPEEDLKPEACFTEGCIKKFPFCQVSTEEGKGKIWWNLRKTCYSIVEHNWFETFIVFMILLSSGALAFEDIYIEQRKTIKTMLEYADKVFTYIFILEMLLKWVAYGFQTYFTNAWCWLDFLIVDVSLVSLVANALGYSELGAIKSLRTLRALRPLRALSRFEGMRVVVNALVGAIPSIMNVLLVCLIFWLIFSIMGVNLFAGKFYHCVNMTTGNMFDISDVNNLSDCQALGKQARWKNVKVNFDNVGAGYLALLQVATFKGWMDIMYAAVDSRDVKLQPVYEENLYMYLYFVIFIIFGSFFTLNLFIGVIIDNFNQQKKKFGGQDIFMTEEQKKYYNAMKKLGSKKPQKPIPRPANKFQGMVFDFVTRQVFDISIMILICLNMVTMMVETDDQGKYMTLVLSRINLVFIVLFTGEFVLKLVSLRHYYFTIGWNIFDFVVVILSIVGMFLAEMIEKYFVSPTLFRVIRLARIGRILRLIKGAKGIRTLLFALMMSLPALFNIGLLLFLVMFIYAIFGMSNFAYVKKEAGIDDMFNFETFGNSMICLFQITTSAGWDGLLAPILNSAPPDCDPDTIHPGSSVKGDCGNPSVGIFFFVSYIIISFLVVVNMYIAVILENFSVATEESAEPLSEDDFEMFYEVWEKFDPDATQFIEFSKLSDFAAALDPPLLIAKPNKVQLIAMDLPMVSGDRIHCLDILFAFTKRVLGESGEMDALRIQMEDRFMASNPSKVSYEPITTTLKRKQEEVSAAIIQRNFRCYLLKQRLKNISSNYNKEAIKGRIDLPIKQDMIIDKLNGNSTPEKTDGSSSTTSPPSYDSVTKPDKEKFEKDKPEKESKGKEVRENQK
Assay: Inhibition of NaV1.3 (unknown origin) expressed in HEK293 cells by CC2-DMPE/DiSBAC2(3) dye-based FRET assay
Assay type: cell-based
pIC50: −log10 of the molar value.
READOUT LABEL: pIC50

// pIC50 lookup, molecule = O=C1[C@@H](N2CC[C@H](c3cc(Cl)cc(Cl)c3)C2)CCN1c1ccc(S(=O)(=O)Nc2nccs2)cc1 , result: > 5.70

* * *

Test: Clearance in dog liver microsomes
Format: ADME, Canis lupus familiaris, microsome
Details: read-out: CLH
READOUT LABEL: microsomal CLint

// microsomal CLint lookup, molecule = O=S(=O)(Nc1ncns1)c1ccc(OCc2ccc(OC(F)(F)F)c(Cl)c2)cc1 , result: < 18 µL/min/mg
